Listed below: IC50 values for each entry.
system: HCT116; assay: cells; format: cell-based, human; conditions: Table 6; read-out: IC50 HCT116

| compound | target.of.assay | IC50 [nM] |
| --- | --- | --- |
| CCC1(NC(=O)c2ccc3c(c2)ncn3C)CC2CN(CCc3c([nH]c4ccccc34)C(C(=O)OC)(c3cc4c(cc3OC)N(C)C3C(O)(C(=O)OC)C(OC(C)=O)C5(CC)C=CCN6CCC43C65)C2)C1 (stereo not shown) | HCT116 | 0.6 |
| CCC1(NC(=O)c2ccc3ncccc3c2)CC2CN(CCc3c([nH]c4ccccc34)C(C(=O)OC)(c3cc4c(cc3OC)N(C)C3C(O)(C(=O)OC)C(OC(C)=O)C5(CC)C=CCN6CCC43C65)C2)C1 (stereo not shown) | HCT116 | 0.6 |
| CCC1(NC(=O)c2ccc3c(c2)OCO3)CC2CN(CCc3c([nH]c4ccccc34)C(C(=O)OC)(c3cc4c(cc3OC)N(C)C3C(O)(C(=O)OC)C(OC(C)=O)C5(CC)C=CCN6CCC43C65)C2)C1 (stereo not shown) | HCT116 | 0.8 |
| CCC1(NC(=O)c2coc3ccccc23)CC2CN(CCc3c([nH]c4ccccc34)C(C(=O)OC)(c3cc4c(cc3OC)N(C)C3C(O)(C(=O)OC)C(OC(C)=O)C5(CC)C=CCN6CCC43C65)C2)C1 (stereo not shown) | HCT116 | 4.6 |
| CC[C@]1(NC(=O)c2cc3ccccc3o2)C[C@H]2CN(CCc3c([nH]c4ccccc34)[C@@](C(=O)OC)(c3cc4c(cc3OC)N(C)[C@H]3[C@@](O)(C(=O)OC)[C@H](OC(C)=O)[C@]5(CC)C=CCN6CC[C@]43[C@@H]65)C2)C1 | HCT116 | 1.1 |
| CCC1(NC(=O)c2ccc3ccncc3c2)CC2CN(CCc3c([nH]c4ccccc34)C(C(=O)OC)(c3cc4c(cc3OC)N(C)C3C(O)(C(=O)OC)C(OC(C)=O)C5(CC)C=CCN6CCC43C65)C2)C1 (stereo not shown) | HCT116 | 0.4 |
| CC[C@]1(NC(=O)c2csc3ccccc23)C[C@H]2CN(CCc3c([nH]c4ccccc34)[C@@](C(=O)OC)(c3cc4c(cc3OC)N(C)[C@H]3[C@@](O)(C(=O)OC)[C@H](OC(C)=O)[C@]5(CC)C=CCN6CC[C@]43[C@@H]65)C2)C1 | HCT116 | 5.7 |
| CC[C@]1(NC(=O)c2ccc3ncoc3c2)C[C@H]2CN(CCc3c([nH]c4ccccc34)[C@@](C(=O)OC)(c3cc4c(cc3OC)N(C)[C@H]3[C@@](O)(C(=O)OC)[C@H](OC(C)=O)[C@]5(CC)C=CCN6CC[C@]43[C@@H]65)C2)C1 | HCT116 | 0.6 |
| CCC1(NC(=O)c2ccc3sccc3c2)CC2CN(CCc3c([nH]c4ccccc34)C(C(=O)OC)(c3cc4c(cc3OC)N(C)C3C(O)(C(=O)OC)C(OC(C)=O)C5(CC)C=CCN6CCC43C65)C2)C1 (stereo not shown) | HCT116 | 4.9 |
| CCC1(NC(=O)c2ccc3c(c2)CCCO3)CC2CN(CCc3c([nH]c4ccccc34)C(C(=O)OC)(c3cc4c(cc3OC)N(C)C3C(O)(C(=O)OC)C(OC(C)=O)C5(CC)C=CCN6CCC43C65)C2)C1 (stereo not shown) | HCT116 | 0.5 |
